procedure text: Cell Viability - LYMP2-023 (AID 975);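 note: cells exposed to compound for 24 hours at 37 °C; nearly all actives have a fitted effect of over 55% in size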
condition details: LYMP2-023 lymphoblastoid cell viability; series mostly up to 92.2 µM
Records with an inconclusive call do not appear. Activity calls are given as the source filed them. Calls come from the whole dose curve; as a rule, active = well fitted cell-killing curve with a large enough effect; inconclusive = small, poorly fitted or top-dose-only effect; inactive = flat fitted curve, though single readings scatter.
Reply using exactly one outcome from 1 for active, -1 for inactive

Solved cases below.
{"columns": ["compound", "label value"],
 "data": [
  ["NNC(N)=O", -1],
  ["ClCC1CO1 (configuration not stated)", -1]
]}

INPUT: For CC(C)Nc1ccc(Nc2ccccc2)cc1 , which call appears in the assay record?
OUTPUT: 1

INPUT: For COC1=CC(=O)O[C@@H](/C=C/c2ccccc2)C1 , which call appears in the assay record?
OUTPUT: -1

INPUT: For O=Cc1ccco1 , which call appears in the assay record?
OUTPUT: -1

###

procedure text: Cell Viability - LYMP2-012 (AID 982);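 note: cellular ATP by luciferase luminescence where a drop means cytotoxicity; cells exposed to compound for one day before reading; nearly all actives have a fitted effect of over 55% in size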
condition details: LYMP2-012 lymphoblastoid cell viability qHTS; series mostly up to 92.2 µM
Records with an inconclusive call do not appear. Calls of active or inactive are those of the source. Calls follow the shape of the dose curve; as a rule, active = well fitted cell-killing curve with a large enough effect; inconclusive = small, poorly fitted or top-dose-only effect; inactive = flat fitted curve, though single readings scatter.
Reply using exactly one outcome from True (active), False (inactive)

{"columns": ["molecule", "label value"],
 "data": [
  ["ClCC1CO1 (configuration not stated)", "False"]
]}

INPUT: For O=[N+]([O-])c1ccc(F)c([N+](=O)[O-])c1 , which call appears in the assay record?
OUTPUT: False

INPUT: For Oc1cc(Cl)c(Cl)cc1Cl , which call appears in the assay record?
OUTPUT: False

INPUT: For ClC(Cl)(Cl)Cl , which call appears in the assay record?
OUTPUT: False

INPUT: For NNC(N)=O , which call appears in the assay record?
OUTPUT: False

INPUT: For O=C1C=CC(=O)C=C1 , which call appears in the assay record?
OUTPUT: True

INPUT: For O=C(O)C(Cl)(Cl)Cl , which call appears in the assay record?
OUTPUT: False

###

target: Atrial natriuretic peptide receptor 2 (Homo sapiens)
procedure text: Natriuretic polypeptide receptor (hNpr2) antagonism - Pilot subtype selectivity assay (AID 1347050)
condition details: NPR2-expressing cells, cGMP antagonist-mode read-out; series mostly up to 38.3 µM
Records with an inconclusive call do not appear. The source made the active and inactive calls. Calls come from the whole dose curve.
Reply using exactly one outcome from 1 for active, 0 for inactive

Solved cases below.
{"columns": ["compound", "label value"],
 "data": [
  ["C[N+](C)(C)CCOC(=O)CBr", 0],
  ["CCCCCCCCCCCCCC(=O)O[C@@H]1[C@@H](C)[C@@]2(O)[C@@H](C=C(CO)C[C@@]3(O)C(=O)C(C)=C[C@@H]23)C2C(C)(C)[C@@]21OC(C)=O (stereo partly drawn)", 1],
  ["C=CCN1CCc2cccc3c2[C@H]1Cc1ccc(O)c(O)c1-3", 0],
  ["NCC(O)c1cc(O)c(O)cc1F (stereo not drawn)", 0],
  ["CC12NC(Cc3ccccc31)c1ccccc12 (stereo not drawn)", 0]
]}

INPUT: For NCC(CP(=O)(O)O)c1ccc(Cl)cc1 (stereo not drawn) , which call appears in the assay record?
OUTPUT: 0

INPUT: For COc1ccc2c(c1)C13CCCCC1C(C2)N(C)CC3 (stereo not drawn) , which call appears in the assay record?
OUTPUT: 0

INPUT: For C#CCN[C@H](C)Cc1ccccc1 , which call appears in the assay record?
OUTPUT: 0

INPUT: For NC(CCCCCP(=O)(O)O)C(=O)O (stereo not drawn) , which call appears in the assay record?
OUTPUT: 0

INPUT: For C=CCN1C[C@@H](C)N([C@H](c2ccc(C(=O)N(CC)CC)cc2)c2cccc(OC)c2)C[C@@H]1C , which call appears in the assay record?
OUTPUT: 0

INPUT: For Cc1[nH]c2ccc(O)cc2c1CCN , which call appears in the assay record?
OUTPUT: 0

INPUT: For CCN1C[C@@]2(COC)C3[C@@H](OC)C4[C@@H]1C3([C@@H]1C[C@]3(O)[C@H](OC(=O)c5ccccc5)[C@@H]1[C@]4(OC(C)=O)[C@@H](O)[C@@H]3OC)[C@H](OC)C[C@H]2O , which call appears in the assay record?
OUTPUT: 0

INPUT: For CCCN(CCC)CCc1c[nH]c2ccc(C(N)=O)cc12 , which call appears in the assay record?
OUTPUT: 0

INPUT: For CN1CCc2cc(O)cc3c2[C@H]1Cc1ccc(O)c(O)c1-3 , which call appears in the assay record?
OUTPUT: 0

INPUT: For N[C@@H](Cn1ccc(=O)[nH]c1=O)C(=O)O , which call appears in the assay record?
OUTPUT: 0

INPUT: For C/C(O)=C(\C#N)C(=O)Nc1cc(Br)ccc1Br , which call appears in the assay record?
OUTPUT: 0

INPUT: For CCCN1CC[C@@H]2c3cc(O)ccc3CC[C@@H]21 , which call appears in the assay record?
OUTPUT: 0

INPUT: For CC(Cc1ccc(OCC(=O)O)cc1)NCC(O)c1cccc(Cl)c1 (stereo not drawn) , which call appears in the assay record?
OUTPUT: 0

###

procedure text: Validation qHTS assay for inhibitors of Activation Induced Cytidine Deaminase (AID): UDG Counterscreen signal (AID 1347427); note: 0% is about no effect
condition details: biochemical UDG counterscreen, fluorescence signal; series mostly up to 115 µM
Activity calls are given as the source filed them. Calls come from the whole dose curve; as a rule, active = well fitted curve in the direction sought with a large enough effect; inconclusive = small, poorly fitted or top-dose-only effect, or another doubt; inactive = no such curve, though single readings can be large or run the other way.
Reply using exactly one outcome from yes (1) = active, no (0) = inactive

Solved cases below.
{"columns": ["compound", "label value"],
 "data": [
  ["COc1cc(CC(C)N)c(OC)cc1I (stereo not drawn)", "no (0)"],
  ["CCN1C[C@@]2(COC)C3[C@@H](OC)C4[C@@H]1C3([C@@H]1C[C@]3(O)[C@H](OC(=O)c5ccccc5)[C@@H]1[C@]4(OC(C)=O)[C@@H](O)[C@@H]3OC)[C@H](OC)C[C@H]2O", "no (0)"],
  ["NC(Cc1cc(O)c(O)cc1O)C(=O)O (stereo not drawn)", "no (0)"],
  ["C=CCN1CCC23c4c5ccc(O)c4O[C@H]2C(=O)CC[C@@]3(O)C1C5 (stereo partly drawn)", "no (0)"],
  ["NC(=O)c1ccc(OCC(O)CN2CC=C(c3ccc(F)cc3)CC2)cc1 (stereo not drawn)", "no (0)"],
  ["CC(N)Cc1c[nH]c2ccc(O)cc12 (stereo not drawn)", "no (0)"]
]}

INPUT: For CC(C)[C@@]1(NC(=O)[C@@H]2C[C@@H]3c4cccc5[nH]cc(c45)C[C@H]3N(C)C2)O[C@@]2(O)[C@@H]3CCCN3C(=O)[C@H](Cc3ccccc3)N2C1=O , which call appears in the assay record?
OUTPUT: no (0)

INPUT: For O=[N+]([O-])c1cc(O)c(O)c([N+](=O)[O-])c1 , which call appears in the assay record?
OUTPUT: no (0)

INPUT: For CCCC[N+]1(C)C2CC(OC(=O)[C@H](CO)c3ccccc3)CC1C1OC12 (stereo partly drawn) , which call appears in the assay record?
OUTPUT: no (0)

INPUT: For CCCN(CCC)CCc1ccc(O)c(O)c1 , which call appears in the assay record?
OUTPUT: no (0)

INPUT: For COc1ccc2c(c1)[C@@]13CCCC[C@H]1[C@@H](C2)NCC3 , which call appears in the assay record?
OUTPUT: no (0)

INPUT: For C=CCN1C[C@@H](C)N([C@H](c2ccc(C(=O)N(CC)CC)cc2)c2cccc(OC)c2)C[C@@H]1C , which call appears in the assay record?
OUTPUT: no (0)

INPUT: For N#C/C(=C/c1ccc(O)c(O)c1)C(N)=S , which call appears in the assay record?
OUTPUT: no (0)

###

target: Transient receptor potential cation channel subfamily V member 1 (Homo sapiens) (UniProt Q8NER1)
Sequence (Q8NER1 whole entry, looked up): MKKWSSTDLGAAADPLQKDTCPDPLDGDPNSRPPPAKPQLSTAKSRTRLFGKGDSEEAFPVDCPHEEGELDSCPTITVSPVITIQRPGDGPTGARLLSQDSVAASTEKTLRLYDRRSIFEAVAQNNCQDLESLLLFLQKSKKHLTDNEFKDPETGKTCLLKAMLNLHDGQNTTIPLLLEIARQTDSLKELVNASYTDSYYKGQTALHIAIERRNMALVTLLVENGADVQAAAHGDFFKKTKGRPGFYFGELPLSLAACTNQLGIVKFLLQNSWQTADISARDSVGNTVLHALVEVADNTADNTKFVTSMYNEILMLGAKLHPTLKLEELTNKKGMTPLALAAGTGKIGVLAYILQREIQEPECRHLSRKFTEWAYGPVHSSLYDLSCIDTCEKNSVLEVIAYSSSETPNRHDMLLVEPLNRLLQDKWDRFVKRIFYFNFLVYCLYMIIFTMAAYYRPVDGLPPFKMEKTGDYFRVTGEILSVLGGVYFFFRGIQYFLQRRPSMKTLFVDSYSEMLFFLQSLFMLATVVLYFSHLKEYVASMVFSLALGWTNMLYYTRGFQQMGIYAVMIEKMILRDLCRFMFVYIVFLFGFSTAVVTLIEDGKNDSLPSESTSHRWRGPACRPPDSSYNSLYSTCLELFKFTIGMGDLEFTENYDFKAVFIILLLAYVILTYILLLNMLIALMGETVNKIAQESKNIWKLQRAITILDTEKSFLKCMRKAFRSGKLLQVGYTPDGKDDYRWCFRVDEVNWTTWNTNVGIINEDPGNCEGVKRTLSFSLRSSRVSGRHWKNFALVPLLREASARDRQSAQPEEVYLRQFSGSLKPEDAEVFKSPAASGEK
procedure text: HTS Assay for Compounds that Act as Enhancers of the Vanilloid Receptor 1 (AID 488979); note: 0% is about no effect
condition details: TRPV1-expressing cells, enhancer of channel activity; series mostly up to 41.7 µM
Records with an inconclusive call do not appear. Activity calls are given as the source filed them. The call rests on the fitted dose curve; in most records, active means well fitted curve in the direction sought with a large enough effect; inconclusive means small, poorly fitted or top-dose-only effect, or effect the other way, or another doubt; inactive means no such curve, though single readings can be large or run the other way.
test readout: outcome

Examples with their reported outcome follow.
{"columns": ["compound", "outcome"],
 "data": [
  ["C[N+]1(C)CCC(OC(=O)C(c2ccccc2)c2ccccc2)CC1", "inactive"],
  ["CCCN(CCC)CCc1c[nH]c2ccc(C(N)=O)cc12", "inactive"],
  ["CC(C)(C)c1cc(C=C(C#N)C#N)cc(C(C)(C)C)c1O", "inactive"],
  ["CCCN(CCC)C1Cc2cc(OC)c(OC)cc2C1", "inactive"],
  ["CO[C@H]1CC=C2CCN3CCC4=C(CC(=O)OC4)[C@]23C1", "inactive"]
]}

INPUT: For CCCN(CCC)[C@H]1CCc2c(F)ccc(O)c2C1 , what is its reported outcome?
OUTPUT: inactive

INPUT: For CC12NC(Cc3ccccc31)c1ccccc12 (stereo not given) , what is its reported outcome?
OUTPUT: inactive

INPUT: For C/C(O)=C(\C#N)C(=O)Nc1cc(Br)ccc1Br , what is its reported outcome?
OUTPUT: inactive

INPUT: For O=C1C=CC(=O)C=C1 , what is its reported outcome?
OUTPUT: inactive

INPUT: For C[C@]12Cc3cn4c(nc3C=C1CCC1C2CC[C@@]2(C)[C@H]1CC[C@@]2(O)C#N)nc1ccccc14 (stereo not given in full) , what is its reported outcome?
OUTPUT: inactive

INPUT: For C=CCN1CC[C@]23c4c5ccc(O)c4O[C@@H]2/C(=N/N=C2\CC[C@@]4(O)C6Cc7ccc(O)c8c7[C@@]4(CCN6CC=C)[C@@H]2O8)CC[C@@]3(O)C1C5 , what is its reported outcome?
OUTPUT: inactive

INPUT: For NC(N)=NOCC[C@H](N)C(=O)O , what is its reported outcome?
OUTPUT: inactive

Values compiled from PubChem BioAssay (NCATS).
